Molecular target: C5a receptor (Homo sapiens, UniProt P21730)
Construct: endogenous in cells; host or cells: fresh human polymorphonuclear leukocytes (PMNs), intact cells
Sequence (P21730 whole entry): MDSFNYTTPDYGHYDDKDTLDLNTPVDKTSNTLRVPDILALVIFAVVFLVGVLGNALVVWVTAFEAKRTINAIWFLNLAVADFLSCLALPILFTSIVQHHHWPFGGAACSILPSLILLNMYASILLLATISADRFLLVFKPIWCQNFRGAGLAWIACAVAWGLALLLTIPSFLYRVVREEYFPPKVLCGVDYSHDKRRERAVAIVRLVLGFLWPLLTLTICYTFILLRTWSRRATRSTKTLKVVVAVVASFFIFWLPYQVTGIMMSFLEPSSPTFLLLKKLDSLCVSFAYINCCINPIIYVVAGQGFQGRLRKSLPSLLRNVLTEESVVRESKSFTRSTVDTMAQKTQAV
Experiment: Agonist activity in human PMNs
Assay type: cell-based
Settings: dose range 0.1 nM-1 mM; human PMNs

| smiles_entry | Agonist Activity |
| --- | --- |
| CN[C@@H](Cc1ccccc1)C(=O)N[C@@H](CCCCN)C(=O)N1CCC[C@H]1C(=O)N[C@H](CC1CCCCC1)C(=O)N[C@@H](Cc1c[nH]c2ccccc12)C(=O)N[C@H](CCCNC(=N)N)C(N)=O | No |
| CC(=O)N[C@@H](Cc1ccccc1)C(=O)N[C@H]1CCCNC(=O)[C@@H](CCCNC(=N)N)NC(=O)[C@H](Cc2c[nH]c3ccccc23)NC(=O)[C@@H](CC2CCCCC2)NC(=O)[C@@H]2CCCN2C1=O | No |
